Target: HTR3A (Homo sapiens, UniProt P46098)
Sequence (P46098 24-478, species assumed): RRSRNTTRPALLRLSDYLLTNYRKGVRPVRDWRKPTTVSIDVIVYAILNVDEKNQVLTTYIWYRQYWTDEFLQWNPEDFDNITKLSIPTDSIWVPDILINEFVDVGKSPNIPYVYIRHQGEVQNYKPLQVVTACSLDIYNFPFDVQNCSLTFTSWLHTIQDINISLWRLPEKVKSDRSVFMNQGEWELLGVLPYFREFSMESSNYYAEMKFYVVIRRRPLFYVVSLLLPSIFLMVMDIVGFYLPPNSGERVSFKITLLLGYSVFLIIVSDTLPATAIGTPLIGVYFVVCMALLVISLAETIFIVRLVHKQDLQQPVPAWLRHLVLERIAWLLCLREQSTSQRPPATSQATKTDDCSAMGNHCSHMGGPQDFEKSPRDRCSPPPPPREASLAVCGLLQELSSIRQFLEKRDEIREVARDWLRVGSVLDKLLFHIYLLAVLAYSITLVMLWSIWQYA
Assay: SAFETYScan Ion Channel, Blocker
Settings: read-out: RC50 (IC50)
Description: Supplement jm1c02175_si_002.xlsx, sheet "SAFETYScan" | column: RC50 (uM); Max Response
metric: IC50

>>> df
                                   compound  metric  reported_measurement
0  C[C@H]1C[C@@H](O)CN(c2ncc(Cl)c(Nc3ccc4c(c3)c3c(c(=O)n4C)OCC(F)(F)[C@H](C4CC4)N3)n2)C1 [12a CCT373566]    IC50               > 10 µM

The origin of these recorded values is paper PMC9234961.
